Papp values by entry
- experiment: Apparent passive permeability in human Caco2 cells
- Type: ADME, cell-based
- reported.conditions: Caco-2

What measured Papp goes with Cc1cc(C#N)ccc1-c1cnn2c1C[C@@H](Oc1ncc(F)cn1)C2 ?
623 nm/s

We now examine a further compound.
// query Papp value for entry Cc1cc(C#N)ccc1-c1cnn2c1C[C@@H](O)C2
684 nm/s
